Values were extracted from patent US20250154198A1.

Molecular target: T1, human IL-23R endogenously expressed on DB cells (CRL-2289) (human, UniProt Q5VWK5 24-629)
T1 sequence (looked up): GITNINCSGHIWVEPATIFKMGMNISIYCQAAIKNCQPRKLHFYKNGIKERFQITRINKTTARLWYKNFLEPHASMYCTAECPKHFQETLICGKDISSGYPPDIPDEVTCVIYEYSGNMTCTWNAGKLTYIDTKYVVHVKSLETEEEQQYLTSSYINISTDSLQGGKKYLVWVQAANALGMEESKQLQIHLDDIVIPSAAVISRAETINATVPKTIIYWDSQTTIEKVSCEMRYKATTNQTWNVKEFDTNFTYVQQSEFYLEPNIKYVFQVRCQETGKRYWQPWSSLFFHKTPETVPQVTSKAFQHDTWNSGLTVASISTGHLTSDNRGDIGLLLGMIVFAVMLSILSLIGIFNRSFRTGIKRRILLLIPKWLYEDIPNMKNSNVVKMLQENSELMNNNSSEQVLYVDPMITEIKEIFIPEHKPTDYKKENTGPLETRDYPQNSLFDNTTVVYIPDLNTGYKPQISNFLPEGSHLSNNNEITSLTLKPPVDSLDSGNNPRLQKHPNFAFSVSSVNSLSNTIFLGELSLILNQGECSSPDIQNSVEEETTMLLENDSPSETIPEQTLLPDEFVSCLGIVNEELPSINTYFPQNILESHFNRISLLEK
Assay: cell-based or functional assay
*1 amine or outer side, *2 acyl side, *3 side chain or, on linkers, in order; H or OH if unused. Bridges are numbered along the chain shown (N, C = ends). Primed or numbered codes have the meaning given here. Where no end group is shown, it is not given here. [ ]: non-standard residue; d: D form. 4‑Aminomethyl‑phenylacetyl = 4-aminomethyl-phenylacetyl unit, its amine closes the lactam, O=C(Cc1ccc(CN[*:1])cc1)[*:2]; 1,3‑dibromopropan‑2‑one = linker (CAS 816-39-7) joining two Cys as 1,3-dithio-propan-2-one bridge -SCH2C(=O)CH2S-; 1,3‑dibromopropan‑2‑one(3) = linker giving 1,3-dithio-propan-2-one bridge -SCH2C(=O)CH2S- between Cys; Pipz(1-CH2CO,4-CH2CH2NH) = O=C(CN1CCN(CCN[*:1])CC1)[*:2]; Trp(4-F) = N[C@@H](Cc1c[nH]c2cccc(F)c12)C(=O)O; 2Nal = N[C@@H](Cc1ccc2ccccc2c1)C(=O)O; AEF = NCCOc1ccc(C[C@H](N)C(=O)O)cc1; αMeL = CC(C)C[C@](C)(N)C(=O)O; CH2COCH2 = O=C(C[*:1])C[*:2]; Dab = NCC[C@H](N)C(=O)O
Decision: IC50 (pSTAT3) beneath 20 nM gives MET; IC50 (pSTAT3) meeting or exceeding 20 nM gives NOT MET.

Decide: IC50 (pSTAT3) of [4‑Aminomethyl‑phenylacetyl]SCWQC[AEF][2Nal][αMeL]E[dR]-OH (lactam N-10; linker 3-6 via 1,3‑dibromopropan‑2‑one(3)) [Compound 108] strictly below 20 nM? MET

I wonder whether Ac-KSCWQCW[2Nal]LER-NH2 (lactam 1-10; linker 3-6 via CH2COCH2) [Compound 18] has IC50 (pSTAT3) below 20 nM. Can you tell? MET

In the record for [4‑Aminomethyl‑phenylacetyl]SE[Trp(4-F)]Q[Dab][AEF][2Nal][αMeL]E[Dab]-NH2 (lactam N-10, 3-6; SMILES CC(C)C[C@]1(C)NC(=O)[C@H](Cc2ccc3ccccc3c2)NC(=O)[C@H](Cc2ccc(OCCN)cc2)NC(=O)[C@@H]2CCNC(=O)CC[C@H](NC(=O)[C@H](CO)NC(=O)Cc3ccc(cc3)CNC(=O)CC[C@@H](C(=O)N[C@@H](CCN)C(N)=O)NC1=O)C(=O)N[C@@H](Cc1c[nH]c3cccc(F)c13)C(=O)N[C@@H](CCC(N)=O)C(=O)N2) [Compound 138] , is IC50 (pSTAT3) less than 20 nM? NOT MET

is_below(IC50 (pSTAT3), 20 nM) for Ac-ESCWQCWWLKR-NH2 (lactam 1-10; linker 3-6 via 1,3‑dibromopropan‑2‑one) [Compound 10] ? NOT MET

Here's an entry: Ac-DKSCWQC[2Nal][2Nal]LER-NH2 (lactam 2-11; linker 4-7 via CH2COCH2; SMILES CC(=O)N[C@@H](CC(=O)O)C(=O)N[C@H]1CCCCNC(=O)CC[C@@H](C(=O)N[C@@H](CCCNC(=N)N)C(N)=O)NC(=O)[C@H](CC(C)C)NC(=O)[C@H](Cc2ccc3ccccc3c2)NC(=O)[C@H](Cc2ccc3ccccc3c2)NC(=O)[C@@H]2CSCC(=O)CSC[C@H](NC(=O)[C@H](CO)NC1=O)C(=O)N[C@@H](Cc1c[nH]c3ccccc13)C(=O)N[C@@H](CCC(N)=O)C(=O)N2) [Compound 28] . Is its IC50 (pSTAT3) below 20 nM? NOT MET

Report whether reported IC50 (pSTAT3) is lower than 20 nM (strictly) for [4‑Aminomethyl‑phenylacetyl]SCWQC[AEF][2Nal][αMeL]E[Dab]-NH2 (lactam (positions not given here); linker 3-6 via CH2COCH2; not fully specified (bridges); printed as [4-Aminomethyl-phenylacetyl](1c)*SC(2a)WQC(2a)[Y(2-aminoethoxy)][2-Nal][2-Me-Leu]E(1c)[Dab]-[NH2]) [Compound 82] MET

Problem: For the binder [Pipz(1-CH2CO,4-CH2CH2NH)]SCWQC[AEF][2Nal][αMeL]E[dR]-NH2 (lactam (positions not given here); linker 3-6 via CH2COCH2; not fully specified (bridges); printed as [(4-(2-Aminoethyl)-piperazine-1-yl)-acetyl](1c)*SC(2a)WQC(2a)[Y(2-aminoethoxy)][2-Nal][2-Me-Leu]E(1c)[{d}R]-[NH2]) [Compound 90] , is IC50 (pSTAT3) under 20 nM? MET
